Ref: PubChem BioAssay AID1159580

Here, each record is paired with measured normalized growth data.
test: chemical genetic growth profiling, strain panel (AID 1159580);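 also: tested at 20 µM; growth read once vehicle control cultures reached saturation at 30 °C; 1 = growth at the plate median or of vehicle wells; lower values mean less growth of the strain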; conditions: S. cerevisiae deletion strains, growth OD, locus YDL101C, strain DUN1, active compounds read low
Screen size: about 5,500 compounds; about 2,000 (36%) were called active. Inconclusive results (about 18%) are left out. This is one part of the list.
Just the number, please.

Worked set:
# compound, normalized growth
rows = [
    ("NC(=S)N/N=C\\c1cccs1", 0.979),
    ("NCC(CC(=O)O)c1ccc(Cl)s1 (stereo not drawn)", 0.992),
    ("O=C(N/N=C\\c1cccs1)c1ccccc1CO", 0.997),
    ("OC(CNCCc1cccs1)COc1ccccc1 (stereo not drawn)", 0.999),
    ("Cc1ccsc1/C=C/C1=NCCCN1C", 0.991),
]

Challenge: Look at this compound and give its reported normalized growth. C[C@H]1[C@H]2CCC3C4CC=C5C[C@@H](N(C)C)CC[C@]5(C)C4CC[C@@]32CN1C (stereo partly drawn)
Response given: 0.989

Challenge: Look at this compound and give its reported normalized growth. `COc1c2c(cc3c1OCO3)CCN(C)C2`
Response given: 1.02

Challenge: Look at this compound and give its reported normalized growth. CCCC(C)C1(CC)C(=O)NC(=O)NC1=O (stereo not drawn)
Response given: 1.02

Challenge: Look at this compound and give its reported normalized growth. `CC(C)c1ccc(N2C=Nc3ccc(C(C)C)cc3C2)cc1`
Response given: 1

Challenge: Look at this compound and give its reported normalized growth. `COc1cc(OC)c2c(=O)c(-c3ccccc3)c(C)oc2c1OC`
Response given: 1.01

* * *

assay: chemical genetic growth profiling, strain panel (AID 1159580); conditions: S. cerevisiae deletion strains, growth OD, locus YGL173C, strain kem1, active compounds read low
Screen size: about 5,500 compounds; about 2,000 (36%) were called active. Inconclusive results (about 18%) are left out. Some of the results follow.
measured metric: normalized growth

# compound, normalized growth
data = [
    ("C=CC(C1=CC(=O)C=CC1=O)c1ccccc1 (stereo not given)", "1 (inactive)"),
    ("O=C(OC1Cc2c(O)cc(O)cc2OC1c1cc(O)c(O)c(O)c1-c1c(C2Oc3cc(O)cc(O)c3CC2OC(=O)c2cc(O)c(O)c(O)c2)cc(O)c(O)c1O)c1cc(O)c(O)c(O)c1 (stereo not given)", "0.981 (inactive)"),
    ("COc1ccc(C(Cl)=C(c2ccc(OC)cc2)c2ccc(OC)cc2)cc1", "1.03 (inactive)"),
    ("CCN(CC)CCOc1ccc2c(c1)C(=O)c1cc(OCCN(CC)CC)ccc1-2", "0.978 (inactive)"),
    ("CCN(CC)CCOc1ccc(/C(=C(\\Cl)c2ccccc2)c2ccccc2)cc1", "0.497 (active)"),
]

Challenge: Look at this compound and give its reported normalized growth. `Nc1ccc(S(=O)(=O)Nc2ccc(Cl)nn2)cc1`
Response given: 0.99 (inactive)

Challenge: Look at this compound and give its reported normalized growth. CCCC1O[C@@H]2CC3C4CCC5=CC(=O)C=CC5(C)C4[C@@H](O)CC3(C)[C@]2(C(=O)CO)O1 (stereo not given in full)
Response given: 1 (inactive)

Challenge: Look at this compound and give its reported normalized growth. CC(C)NCC(O)c1ccc(O)c(O)c1 (stereo not given)
Response given: 0.999 (inactive)

Challenge: Look at this compound and give its reported normalized growth. `CN(C)CCOc1ccc(/C(=C(/CCCl)c2ccccc2)c2ccccc2)cc1`
Response given: 0.0697 (active)

Challenge: Look at this compound and give its reported normalized growth. C=C(C)C1CC=C(CO)CC1 (stereo not given)
Response given: 0.955 (inactive)

Challenge: Look at this compound and give its reported normalized growth. `O=C(O)C1=CCNCC1`
Response given: 1.01 (inactive)

* * *

experiment: chemical genetic growth profiling, strain panel (AID 1159580); conditions: S. cerevisiae deletion strains, growth OD, locus YNL222W, strain SSU72, active compounds read low
Hit rate of the full screen: of about 5,500 compounds, about 2,000 (36%) were called active. Roughly 18% stayed inconclusive and do not appear here. The list shows a part of the results.
measured metric: normalized growth
Just the number, please.

Worked set:
# compound, normalized growth
measured = [
    ("CCCc1c(C(=O)Sc2ccccn2)cnn1-c1ccc(Cl)cc1", 0.957),
    ("COc1ccc(C(=O)CSC2=NCCc3ccccc32)cc1", 0.976),
    ("O=[N+]([O-])/C=C/c1ccsc1", 0.0831),
    ("Cc1nn(Cc2ccc(C(=O)Sc3ccc(C(F)(F)F)cn3)o2)c(C)c1Br", 0.963),
]

Challenge: Look at this compound and give its reported normalized growth. `O=C(Nc1ccc(N2CCOCC2)cc1)c1ccc(-n2cccn2)cc1`
Response given: 0.977

Challenge: Look at this compound and give its reported normalized growth. `FC(F)(F)c1cccc(NC(=S)Nc2csc(C(F)(F)F)c2-c2ccccc2)c1`
Response given: 0.991

Challenge: Look at this compound and give its reported normalized growth. O=C1CSC(c2cccnc2)N1c1ccc(Cl)cc1Cl (stereo not drawn)
Response given: 0.99

Challenge: Look at this compound and give its reported normalized growth. `O=c1c(Cl)c(-n2cccn2)cnn1-c1ccc(Cl)cc1Cl`
Response given: 0.949

Challenge: Look at this compound and give its reported normalized growth. `CCCc1c(C(=O)NC2Cc3ccccc3C2)cnn1-c1ccccc1`
Response given: 0.992

Challenge: Look at this compound and give its reported normalized growth. `O=C(NCc1ccncc1)c1ccc(-n2cccn2)cc1`
Response given: 0.982

Challenge: Look at this compound and give its reported normalized growth. `O=C(NC(=S)Nc1cccc(C(F)(F)F)c1)c1ccc2nonc2c1`
Response given: 0.947

Challenge: Look at this compound and give its reported normalized growth. `CC(=O)c1sc(SCCS(=O)(=O)c2ccc(C)cc2)c2c1CC(C)(C)CC2=O`
Response given: 0.967

Challenge: Look at this compound and give its reported normalized growth. `CC(=O)Nc1ccc([N+](=O)[O-])cc1[N+](=O)[O-]`
Response given: 0.711

Challenge: Look at this compound and give its reported normalized growth. `COC(=O)C1=C(C)NC(C)=C(C(=O)OC)C1c1ccc(Cl)cc1Cl`
Response given: 0.973

Challenge: Look at this compound and give its reported normalized growth. `Cn1c(CSCCOc2ccccc2)nnc1SCc1ccc(Cl)cc1Cl`
Response given: 0.984

Challenge: Look at this compound and give its reported normalized growth. `CC(C)c1ccc(NC(=S)NC(=O)c2ccccc2)cc1`
Response given: 0.959

Challenge: Look at this compound and give its reported normalized growth. `O=C(NCCSCc1cccc(C(F)(F)F)c1)Nc1cccc(C(F)(F)F)c1`
Response given: 0.998

Challenge: Look at this compound and give its reported normalized growth. `O=S(=O)(N/N=C\c1ccc(Cl)cc1)c1ccc(-c2ccccn2)s1`
Response given: 0.978

* * *

Here, each record is paired with measured normalized growth data.
assay: chemical genetic growth profiling, strain panel (AID 1159580);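 also: tested at 20 µM; growth read once vehicle control cultures reached saturation at 30 °C; 1 = growth at the plate median or of vehicle wells; lower values mean less growth of the strain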; conditions: S. cerevisiae deletion strains, growth OD, locus YPL078C, strain atp4, active compounds read low
Among all 5,500 compounds or so, about 2,000 (36%) were called active. Inconclusive results (about 18%) are left out. This is one part of the list.
Just the number, please.

# compound, normalized growth
measured = [
    ("O=C1C=CC2=C3c4cc(O)c(O)cc4C[C@@]3(O)COC2=C1", 0.992),
    ("CC(C)NCC(O)c1ccc(O)c(O)c1 (stereo unspecified)", 0.983),
    ("Nc1ncnc2c1ncn2[C@@H]1O[C@H](CO)[C@@H](O)[C@H]1O", 0.969),
]

Attention now shifts to the item below.
Challenge: Look at this compound and give its reported normalized growth. C=C(C)C1CC=C(CO)CC1 (stereo unspecified)
Response given: 0.979

* * *

assay: chemical genetic growth profiling, strain panel (AID 1159580);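 also: tested at 20 µM; growth read once vehicle control cultures reached saturation at 30 °C; 1 = growth at the plate median or of vehicle wells; lower values mean less growth of the strain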; conditions: S. cerevisiae deletion strains, growth OD, locus YBR171W, strain sec66, active compounds read low
The whole screen tested about 5,500 compounds, of which about 2,000 (36%) were called active. Inconclusive results (about 18%) are left out. The list shows a part of the results.
Label true when normalized growth is strictly below 1; at or above that, label false.

As a guide, the following entries are already answered.
# compound, class label
rows = [
    ("O=C(O)c1ccccc1Nc1cccc(C(F)(F)F)c1", "true"),
    ("CCN(CC)CCOc1ccc(/C(=C(\\Cl)c2ccccc2)c2ccccc2)cc1", "true"),
    ("CC(=O)c1c(O)c(C)c(O)c2c1OC1=CC(=O)C(C(C)=O)C(=O)C12C (stereo unspecified)", "true"),
    ("CN(C)CCOc1ccc(/C(=C(/CCCl)c2ccccc2)c2ccccc2)cc1", "true"),
]

Kindly review the next compound as well.
Challenge: # TODO verify normalized growth < 1 strictly for this compound: `COc1ccc(C(Cl)=C(c2ccc(OC)cc2)c2ccc(OC)cc2)cc1`
Response given: false

* * *

Here, each record is paired with measured normalized growth data.
test: chemical genetic growth profiling, strain panel (AID 1159580);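 also: tested at 20 µM; growth read once vehicle control cultures reached saturation at 30 °C; 1 = growth at the plate median or of vehicle wells; lower values mean less growth of the strain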; conditions: S. cerevisiae deletion strains, growth OD, locus YJL115W, strain asf1, active compounds read low
About 2,000 (36%) of roughly 5,500 compounds were called active. Inconclusive results (about 18%) are left out. This is one part of the list.
Just the number, please.

Worked set:
# molecule, val
rows = [
    ("CCOC(=O)c1oc2c(OC)c(O)cc(O)c2c(=O)c1-c1cc(OC)c(OC)c(OC)c1", 0.986),
    ("O=C1O[C@H](C(O)CO)C(O)=C1O (stereo partly drawn)", 0.987),
]

Challenge: Look at this molecule and give its reported normalized growth. CCCC(C)C1(CC)C(=O)NC(=O)NC1=O (stereo not drawn)
Response given: 0.999
